- Tested on: Nrf2
- PROTOCOL_SUMMARY: Evaluation of Nrf2 activation ability (Nrf2d-LacZ / Keap1 HEK293 reporter, Beta-Glo luminescence)
- Type: cell-based, human
- STATED_CONDITIONS: rated A/B/C, Pharmacological Test Example 1
READOUT_NAME: EC50

> print(dat)
                                    compound  readout.name     assay.result
 1  [O-][s+]1nc(O)cc1-n1ncc2cc(C3=CCOCC3)ccc21 (stereo not drawn)          EC50        < 1000 nM
 2  [O-][s+]1nc(O)cc1-n1ncc2c1CN(Cc1cnc3ccccc3c1)C2 (stereo not drawn)          EC50  1000 to 5000 nM
 3  CN1CCOc2nc(-c3ccc4c(cnn4-c4cc(O)n[s+]4[O-])c3)cnc21 (stereo not drawn)          EC50        < 1000 nM
 4  [O-][s+]1nc(O)cc1-n1ncc2ccccc21 (stereo not drawn) [Example 16]          EC50  1000 to 5000 nM
 5  Cc1ccc2cnn(-c3cc(O)n[s+]3[O-])c2c1 (stereo not drawn)          EC50  1000 to 5000 nM
 6  [O-][s+]1nc(O)cc1-n1ncc2cc(-c3cnc4ccoc4c3)ccc21 (stereo not drawn)          EC50        < 1000 nM
 7  [O-][s+]1nc(O)cc1-n1ncc2ccc(-c3ccc(N4CCCC4)nc3)cc21 (stereo not drawn)          EC50  1000 to 5000 nM
 8  [O-][s+]1nc(O)cc1-n1cc2c(n1)CN(Cc1ccccc1)C2 (single isomer, unassigned)          EC50  1000 to 5000 nM
 9  Cn1ccc(-c2ccc3c(cnn3-c3cc(O)n[s+]3[O-])c2)n1 (stereo not drawn)          EC50        < 1000 nM
10  [O-][s+]1nc(O)cc1-n1ncc2cc(-c3cnc4c(c3)OCCO4)ccc21 (stereo not drawn)          EC50        < 1000 nM
11  Cc1cc2cnn(-c3cc(O)n[s+]3[O-])c2cn1 (stereo not drawn)          EC50  1000 to 5000 nM
12  CCN1CCOc2cc(-c3ccc4c(cnn4-c4cc(O)n[s+]4[O-])c3)cnc21 (stereo not drawn)          EC50        < 1000 nM
13  [O-][s+]1nc(O)cc1-n1cc(-c2cccc(Br)c2)cn1 (stereo not drawn)          EC50        < 1000 nM
14  COc1cc(-c2ccnc(N3CCCC3)c2)cc2c1cnn2-c1cc(O)n[s+]1[O-] (stereo not drawn)          EC50        < 1000 nM
15  CC(C)(C)OC(=O)N1Cc2cnn(-c3cc(O)n[s+]3[O-])c2C1 (stereo not drawn)          EC50  1000 to 5000 nM
16  Cc1cc(-c2ccccc2)nn1-c1cc(O)n[s+]1[O-] (stereo not drawn)          EC50  1000 to 5000 nM
17  CN1CCOc2cc(-c3ccc4c(cnn4-c4cc(O)n[s+]4[O-])c3)ncc21 (stereo not drawn)          EC50        < 1000 nM
18  O=C(c1ccc(-c2ccc3c(cnn3-c3cc(O)n[s+]3[O-])c2)cc1)N1CCCC1 (stereo not drawn)          EC50  1000 to 5000 nM
